Kindly state melting point for each of the entries shown.

Value lookup for melting point; key = Nc1nc2c(NCc3ccccc3)ncnc2n1C1OC(CO)C(O)C1O (centres undefined) 80 to 82 °C

Value lookup for melting point; key = COc1ccc(-c2cc(F)cc3c2NC(CN)CO3)c(Cl)c1 (centres undefined) 84 °C

Value lookup for melting point; key = CCOC(=O)C(C(=O)OCC)c1ccc(OCC2=NCCN2)cc1 72 to 110 °C

Value lookup for melting point; key = c1cc(CN2CCOCC2)cc(-n2cnc3cc(-c4ccoc4)cnc32)c1 182 to 184 °C

Value lookup for melting point; key = CCOC(=O)/C=C/c1cn(-c2ccc(C(F)(F)F)cn2)nc1C(C)C 112 to 113 °C

Value lookup for melting point; key = O=C(NCCN1CCCC1)c1ccc(-c2ccc3nnn(Cc4ccc5ncccc5c4)c3n2)cc1 135 to 137 °C

Value lookup for melting point; key = OCc1ccc2[nH]cc(CCCCN3CC=C(c4ccccc4)CC3)c2c1 162 to 164 °C

Value lookup for melting point; key = CN(Cc1cc(C(F)(F)F)cc(C(F)(F)F)c1)C(=O)c1nc(O)ncc1-c1ccccc1 218 to 220 °C

Value lookup for melting point; key = COc1cc(O)c(C(=O)c2ccccc2)c(Cl)c1 92 to 94 °C

Value lookup for melting point; key = O=C(c1ccccc1)N(CCN1CCC(Nc2nc3ccccc3n2Cc2ccc(F)cc2)CC1)c1nccs1 156 °C

Value lookup for melting point; key = O=C(O)c1ccc(OCCCc2ccc(OCCCCOc3ccccc3)cc2)c(C(=O)N2CCC(C(=O)O)CC2)c1 142 to 143 °C

Value lookup for melting point; key = COc1ccc2c(c1)C(c1ccccc1Cl)C(=O)N2 (centres undefined) 179 °C

Value lookup for melting point; key = CSc1ccccc1C(=N)N1CCN(CCc2cc3c(cc2Cl)NC(=O)C3)CC1 103 to 106 °C

Value lookup for melting point; key = Cn1c(=O)c2cccc(N)c2c(=O)c2ccccc21 171 to 173 °C

Value lookup for melting point; key = CCOc1ccc(-c2c(Cl)ncn2-c2ccc(S(C)(=O)=O)cc2)cc1 207 °C

Value lookup for melting point; key = O=C(CCCN1CCC(C(O)c2cccc3ccccc23)CC1)c1ccc(F)cc1 (centres undefined) 172 to 174 °C

Value lookup for melting point; key = CN1C(=O)C(NC(=O)Nc2cccc(Br)c2)N=C(c2ccccc2)c2ccccc21 (centres undefined) 194 to 196 °C

Value lookup for melting point; key = COc1cc2[nH]c(C)c(C(=O)C(=O)N3CCC(Oc4ccc(C(F)(F)F)cc4)CC3)c2cc1OC 211 to 213 °C

Value lookup for melting point; key = CCOc1cc(OC)cc(O)c1C(=O)C=Cc1ccc(OC)cc1 124 °C

###

Kindly state melting point for each of the entries shown.

Value lookup for melting point; key = CC(=O)SC/C(=C/c1ccccc1)C(=O)O 57 °C

Value lookup for melting point; key = COCn1ccnc1C(O)(c1ccc(Cl)cc1Cl)c1ccc(Cl)cc1Cl 146 °C

Value lookup for melting point; key = O=C1C(Cl)=C(NC2CCCC2)C(=O)c2ccccc21 81 to 83 °C

Value lookup for melting point; key = CN1C(=O)Cn2cc(C(=O)NCc3ccc(Cl)cc3)c(=O)c3cc(CN4CCOCC4)cc1c32 213 to 214 °C

Value lookup for melting point; key = COc1ccc(C2CCCC(=O)N2c2ccccc2)cc1 (configuration not stated) 77 to 78 °C

Value lookup for melting point; key = CCOC(=O)OC(C)OC(=O)c1cc(-c2ccc(F)cc2F)ccc1O (configuration not stated) 76 to 78 °C

Value lookup for melting point; key = CCOC(=O)c1cn(-c2ccc(C(F)(F)F)cn2)nc1C 88 to 89 °C

Value lookup for melting point; key = O=C1CCc2c(F)cc(Cl)cc21 105 to 107 °C

Value lookup for melting point; key = Cc1ccsc1C(=O)c1sc(Nc2ccc(S(N)(=O)=O)cc2)nc1N 284 to 286 °C

Value lookup for melting point; key = C[C@H]1[C@H](N)CN1c1c(F)c(N)c2c(=O)c(C(=O)O)cn(C3CC3)c2c1F (relative stereo) 206 to 210 °C

Value lookup for melting point; key = O=C(O)C1=COc2ccccc2O1 183 to 184 °C

Value lookup for melting point; key = COc1ccccc1N1CCN(CCCn2c(=O)[nH]c3cscc3c2=O)CC1 187 to 188 °C

Value lookup for melting point; key = COc1ccc(-c2c(Cl)c(CN3C(=O)CCC3=O)nc3sc4c(F)c(OC)ccc4c23)cc1 215 to 216 °C

Value lookup for melting point; key = C#CCC1(O)CCN(c2ccc(N3C[C@H](CNC(C)=O)OC3=O)cc2F)CC1 166 to 167 °C

Value lookup for melting point; key = O=C(c1cccs1)c1cnn2c(-c3cccc(-c4nnn(CCN5CCOCC5)n4)c3)ccnc12 103 °C

Value lookup for melting point; key = Cc1ccc(NC(=O)NCc2cccc3c2CN(C2CCC(=O)NC2=O)C3=O)cc1C (configuration not stated) > 260 °C

Value lookup for melting point; key = N#Cc1ccsc1-c1ccc(CBr)cc1 80 °C

Value lookup for melting point; key = CCCCCCCCCCOCC(O)CO (configuration not stated) 38.5 to 39 °C

Value lookup for melting point; key = Cc1ccc2c(c1)c(-c1ccc(F)cc1)cn2N1CCN(C)CC1 105 to 107 °C

Value lookup for melting point; key = FC(F)(F)Oc1ccc(C=CC(C=Cc2ccc(OC(F)(F)F)cc2)=NNC2=NCCCN2)cc1 140 to 142 °C

Value lookup for melting point; key = Cc1oc(-c2ccccc2)nc1COc1ccc(C(=O)Nc2nn(-c3ccccc3)cc2C=O)cc1 185 to 186 °C

Value lookup for melting point; key = O=C(NCCCn1cc(Cn2ccnc2)c2ccccc21)Nc1ccccc1 177 to 178 °C

Value lookup for melting point; key = CC(C)(C)OC(=O)NCC(NC(=O)OC(C)(C)C)C(=O)NCCNC(=O)OCc1ccccc1 (configuration not stated) 152 to 154 °C

Value lookup for melting point; key = O=C1NC(=O)c2c1cc1ccc3c(c1c2-c1ccc(Br)cc1)OCO3 324 to 327 °C

Value lookup for melting point; key = O=c1[nH]nc(Cl)cc1Nc1ccncn1 > 300 °C

Value lookup for melting point; key = Cc1cc2ccccc2c(Oc2ccc(/C=C/C(=O)O)cc2)c1-c1ccccc1 224 to 225 °C

Value lookup for melting point; key = Cc1c(-c2ccc3c(c2)OCO3)n(Cc2ccc(OCCN3CCCCC3)cc2)c2ccc(O)cc12 122 to 125 °C

Value lookup for melting point; key = O=C(Nc1nn[nH]n1)c1cnc(N2CCOCC2)nc1OC1CCCCCC1 287 °C

Value lookup for melting point; key = Oc1ccc2c(CCC3CCN(Cc4ccccc4)CC3)noc2c1 148 to 149 °C

Value lookup for melting point; key = CCOC(=O)COc1cccc2c1CCc1sc(S(=O)(=O)C(c3ccccc3)c3ccccc3)nc1-2 184 to 187 °C

Value lookup for melting point; key = COC(=O)c1ccc(-c2nc(-c3cccc(OC(F)(F)F)c3)cs2)cc1 132 to 134 °C

Value lookup for melting point; key = C#Cc1cccc(-c2nccc3nc(N)nn23)c1 170 to 172 °C

Value lookup for melting point; key = O=S(=O)(Cl)C=Cc1c(Cl)cccc1Cl 88 to 90 °C

Value lookup for melting point; key = Cc1cn(-c2ccc(C(=O)N3Cc4cccn4Cc4ccccc43)cc2)cn1 140 to 145 °C

Value lookup for melting point; key = NCCNc1ccc(NCCO)cc1[N+](=O)[O-] 112 °C

Value lookup for melting point; key = O=Cc1cccc(OCc2ccccc2)c1Br 125 to 126 °C

Value lookup for melting point; key = CC(=O)C(C#N)c1ccc2c(c1)Cc1cccnc1O2 (configuration not stated) 245 to 248 °C

Value lookup for melting point; key = COc1ccc2ccc(N3C(=O)c4ccccc4C3OCC(=O)NC3CCCCC3)nc2n1 (configuration not stated) 175 °C

Value lookup for melting point; key = S=C(Cc1ccc(Cl)cc1)N1CCCCC1 82.5 to 83.5 °C

Value lookup for melting point; key = CNC(=O)Nc1cc(C(C)(C)C)on1 187 to 188 °C

Value lookup for melting point; key = CCOc1c(-c2nnn[nH]2)oc2c3ccccc3n(-c3ccccc3)c12 189 to 192 °C

Value lookup for melting point; key = O=S(=O)(NCCCCn1ccnc1)c1ccc(Br)cc1 158 to 159 °C

###

Kindly state melting point for each of the entries shown.

Value lookup for melting point; key = O=[N+]([O-])c1cc2nccnc2cc1Sc1cccc2cnccc12 222 to 225 °C

Value lookup for melting point; key = Cn1c(=O)c2c(ncn2CC(=O)Nc2ccc(-n3nc(C(F)(F)F)cc3C3CC3)cc2)n(C)c1=O 178 to 184 °C

Value lookup for melting point; key = CCCCNc1cccc(-c2ccnc3c(C(=O)c4cccs4)cnn23)c1 87 to 91 °C

Value lookup for melting point; key = CC(C)(C)C(O)C(NC(=O)c1ccccc1)n1ccnc1 (stereo not given) 143 °C

Value lookup for melting point; key = S=c1c2[nH]cnc2c2cccnc2n1-c1ccccc1 > 300 °C

Value lookup for melting point; key = CS(=O)(=O)Nc1ccncc1-c1ccc2cnc(Nc3ccc(N4CCOCC4)cc3)nn12 178 to 180 °C

Value lookup for melting point; key = COc1ccc(N2CCC(=O)C2)cc1 104 to 105 °C

Value lookup for melting point; key = O=C(NCCO[N+](=O)[O-])c1ccco1 88 to 89 °C

Value lookup for melting point; key = CC(=O)N1CCC(CC(O)c2ccc(N(C)C)cc2)CC1 (stereo not given) 119 to 120 °C

Value lookup for melting point; key = COc1ccc(CCl)cc1OCc1nc(-c2ccccc2)oc1C 129 to 130 °C

Taken from a melting point compilation (Tetko et al.; mined from patent text by program, amines drawn as free bases though some values may be those of a salt).
